target-or-system: HCV polymerase (NS5B) type 1a (Hepatitis C virus genotype 1a)
Construct: made in house; host or cells: Escherichia coli (by the 'similar method' of the 1b enzyme)
assay-remarks: Assay of enzyme (HCV polymerase) inhibitory activity, type 1a enzyme
Format: biochemical, HCV type 1a (cloned from the blood of patients)
test-conditions: HCV polymerase inhibitory activity IC50, 1a, type 1a enzyme
List of IC50 values.
measured-quantity: IC50

>>> df
                                   molecule  measured_quantity  experimental_value
0  COc1ccccc1CCNC(=O)[C@H]1CN(C(C)=O)CCN1S(=O)(=O)c1ccc(OC(F)(F)F)cc1 [Example 671]               IC50           > 1000 nM
1  Cc1ncc2ncc(N3CCN(S(=O)(=O)c4ccc(OC(F)(F)F)cc4)[C@@H](C(=O)NCc4ccc(OC(F)(F)F)cc4)C3)nc2n1 [Example 767]               IC50            < 100 nM
2  CCC(F)(F)c1ccc(CNC(=O)[C@H]2CN(c3nc4nc(C)ncc4s3)CCN2S(=O)(=O)c2ccc(C(F)(F)F)cc2)cc1 [Example 935]               IC50            < 100 nM
3  COc1nc(C(F)(F)F)nc2nc(N3CCN(S(=O)(=O)c4ccc(OC(F)(F)F)cc4)[C@@H](C(=O)NCc4ccc(OC(F)(F)F)cc4)C3)sc12 [Example 1022]               IC50      100 to 1000 nM
4  O=C(NCc1ccc(SC(F)(F)F)cc1)[C@H]1CN(c2cnc3cncnc3n2)CCN1S(=O)(=O)c1ccc(OC(F)(F)F)cc1 [Example 772]               IC50            < 100 nM
5  O=C(NCc1ccc(OC(F)(F)F)cc1)[C@H]1CN(c2cnc3ncccc3n2)CCN1S(=O)(=O)c1ccc(OC(F)(F)F)cc1 [Example 769]               IC50            < 100 nM
